Test system: Fusarium graminearum
protocol: microbe, parasite or virus in culture
Assay type: cell-based
protocol-conditions: 72 h, read-out: % Inhibition des Pilzwachstums bei 50 μM
readout-label: inhibition at 50 µM

Examples with their reported inhibition at 50 µM follow.
Record CCC(=O)Nc1cc(-c2cn(CC(C)C)nc2-c2ccc(F)cc2)ccn1 , field inhibition at 50 µM: 97%

Record CCNC(=O)Nc1cc(-c2cn(C(C)C)nc2-c2ccc(F)cc2)ccn1 , field inhibition at 50 µM: 16%

Record CC(=O)Nc1cc(-c2cn(C(C)C)nc2-c2ccc(F)cc2)ccn1 , field inhibition at 50 µM: 104%

Record COCCn1cc(-c2ccnc(NC(=O)COC)c2)c(-c2ccc(F)cc2)n1 , field inhibition at 50 µM: 100%

Record CC(C)n1cc(-c2ccnc(NC(=O)C3CCC3)c2)c(-c2ccc(F)cc2)n1 , field inhibition at 50 µM: 99%

More entries:
Record CC(C)On1cc(-c2ccnc(NC(=O)C3CC3)c2)c(-c2ccc(F)cc2)n1 , field inhibition at 50 µM: 71%

Record Cn1nc(-c2ccc(F)cc2O)c(-c2ccnc(NC(=O)C3CC3)c2)c1OC(F)F , field inhibition at 50 µM: 79%

Record CC(C)C(=O)Nc1cc(-c2cn(CC3CC3)nc2-c2ccc(F)cc2)ccn1 , field inhibition at 50 µM: 92%

Record CC(C)C(=O)Nc1cc(-c2cn(C(C)C)nc2-c2ccc(F)cc2)ccn1 , field inhibition at 50 µM: 92%

Record COCC(=O)Nc1cc(-c2cn(CCCl)nc2-c2ccc(F)cc2)ccn1 , field inhibition at 50 µM: 100%

Record Cc1cc(F)ccc1-c1c(-c2ccncc2)cnn1C1CCCCO1 (stereo not drawn) , field inhibition at 50 µM: 13%

Record O=C(Nc1cc(-c2cn(Cc3ccccc3F)nc2-c2ccc(F)cc2)ccn1)C1CC1 , field inhibition at 50 µM: 35%

Record CCC(=O)Nc1cc(-c2cn(OC(C)C)nc2-c2ccc(F)cc2)ccn1 , field inhibition at 50 µM: 85%

Record CC(C)C(=O)Nc1cc(-c2cn(CC3CC3(Cl)Cl)nc2-c2ccc(F)cc2)ccn1 (stereo not drawn) , field inhibition at 50 µM: 16%

* * *

Tested on: Alternaria solani
protocol: Example M: in vivo test on Alternaria solani (leaf blotch disease/tomato/protective)
protocol-conditions: 168 h, tomato, protective, 500 ppm active substance, assessed 7 days after inoculation, read-out: % Wirkungsgrad (activity level)
readout-label: pest or weed control at 500 ppm (%)
Answer in %, number only, no unit symbol.

Record Cc1c(-c2ccncc2)c(-c2ccc(F)cc2)nn1CC(C)C , field pest or weed control at 500 ppm: 95

Record CCn1cc(-c2ccnc(NC(C)=O)c2)c(-c2ccc(F)cc2)n1 , field pest or weed control at 500 ppm: 95

Record CC(Nc1cc(-c2cn(C)nc2-c2ccc(F)cc2)ccn1)C(F)(F)F (stereo not drawn) , field pest or weed control at 500 ppm: 90

Record CCC(=O)Nc1cc(-c2cn(CCSC)nc2-c2ccc(F)cc2)ccn1 , field pest or weed control at 500 ppm: 80

Record CC(C1CC1)n1cc(-c2ccncc2)c(-c2ccc(F)cc2)n1 (stereo not drawn) , field pest or weed control at 500 ppm: 100

Record CCC(C)n1cc(-c2ccnc(NC(=O)COC)c2)c(-c2ccc(F)cc2)n1 (stereo not drawn) , field pest or weed control at 500 ppm: 94

More entries:
Record CCn1cc(-c2ccnc(NC(=O)C3CC3C)c2)c(-c2ccc(F)cc2)n1 (stereo not drawn) , field pest or weed control at 500 ppm: 95

Record CCCn1cc(-c2ccnc(NC(=O)C(C)C)c2)c(-c2ccc(F)cc2)n1 , field pest or weed control at 500 ppm: 100
